Where do these numbers come from? They come from PubChem BioAssay (NCI).

Quick reference for GI50 among some compounds
Tested on: A549 NSCLC
Experiment: NCI tumour cell line growth inhibition, 48 h

Some solved entries appear below for comparison.
- compound: "Nc1nccc2c1ncn2C1C=C(CO)C(O)C1O (stereo not drawn)"
  GI50: "> 1000 µM"
- compound: "O=[N+]([O-])c1ccc(Oc2cccc(C(F)(F)F)c2)c([N+](=O)[O-])c1"
  GI50: "4.56 µM"

Next compound, please.
Data request: Under A549 NSCLC: GI50 value of "O=C1NC(=O)C(N2CCc3ccccc32)=C1c1ccc(Cl)cc1" ?
Data returned: > 25 µM

* * *

The following molecules are listed with their measured TGI values.
Tested on: OVCAR-8 ovarian
Test: NCI tumour cell line growth inhibition, 48 h

Data request: Record request: TGI value, item Nc1nccc2c1ncn2C1C=C(CO)C(O)C1O (stereo unspecified)
Data returned: > 1000 µM

Data request: Give the measured TGI of "c1cc2ccc3cc2cc1CNCCOCCNCc1ccc2ccc(cc2c1)CNCCOCCNC3" .
Data returned: > 100 µM

Data request: Query (molecule): Cn1c2c(c3ccccc31)CC(=O)N1CCCC(C1)CC21OCCO1 (stereo unspecified) ; field requested: TGI
Data returned: > 100 µM

Data request: Which TGI is listed for "c1csc(-c2cscc2-c2cccs2)c1" ?
Data returned: > 100 µM

Data request: Given the entry CC[C@@]1(OC(=O)C(N)CCC(=O)O)C(=O)OCc2c1cc1n(c2=O)Cc2cc3ccccc3nc2-1 (stereo partly specified) , report its measured TGI.
Data returned: 10.7 µM

Data request: Entry under review: CC(=O)n1cc(CC(C)O)c(=O)[nH]c1=O (stereo unspecified) . Reported TGI?
Data returned: > 100 µM

* * *

molecules and their reported TGI
Test system: MDA-MB-231 breast
Test: NCI tumour cell line growth inhibition, 48 h
Kindly provide the numeric value in µM only, without the unit symbol.

- compound.structure.string: "[O-]/N=N\\c1on[n+](CCc2ccccc2)c1Cc1c(/N=N/[O-])on[n+]1CCc1ccccc1"
  unit.of.measure: "µM"
  test.value: 88.6

Attention now turns to another entry.
Data request: I would be grateful if you could share the reported TGI for "COc1cc(-c2nccc3[nH]c(-c4cccc5[nH]ccc45)nc23)cc(OC)c1OC" .
Data returned: 17.1

* * *

Test system: HL-60(TB) leukemia
Assay: NCI tumour cell line growth inhibition, 48 h
quantity: TGI (µM)
State the answer as a number, implicitly in µM.

Examples with answers:
- compound: "O=C(CCCCCNC1=CC(=O)c2ccccc2C1=O)NCCC[Te]c1ccccc1"
  TGI, µM: 4.4
- compound: "COC(=O)c1c2c(c(C)[n+]([O-])c1C)C(=O)C=C(NCc1ccc(Br)cc1)C2=O"
  TGI, µM: 1.5
- compound: "CCOC(=O)CCC(NC(=O)c1ccc(OCc2ccc3nc(OC)c(OC)nc3c2)cc1)C(=O)OCC (stereo unspecified)"
  TGI, µM: 73.5
- compound: "O=C(/C=C/c1cc(F)ccc1F)OCCc1ccccc1"
  TGI, µM: 79.9
- compound: "CC[C@@]1(OC(=O)C(N)CCC(=O)O)C(=O)OCc2c1cc1n(c2=O)Cc2cc3ccccc3nc2-1 (stereo partly specified)"
  TGI, µM: 0.508

We next turn to a different compound, shown below.
Data request: Name the recorded TGI for "COc1ccc(-c2nnc(Nc3nc(O)c(C4=c5cc(OC(F)(F)F)ccc5=NC4=O)s3)o2)cc1" .
Data returned: 47.7
